- ASSAYED TARGET: human V1a receptor (Homo sapiens, UniProt P37288)
- Construct: expressed in transfected cells; host or cells: CHO K1 (ATCC), also stably transfected with a modified aequorin
- Sequence (P37288 whole entry): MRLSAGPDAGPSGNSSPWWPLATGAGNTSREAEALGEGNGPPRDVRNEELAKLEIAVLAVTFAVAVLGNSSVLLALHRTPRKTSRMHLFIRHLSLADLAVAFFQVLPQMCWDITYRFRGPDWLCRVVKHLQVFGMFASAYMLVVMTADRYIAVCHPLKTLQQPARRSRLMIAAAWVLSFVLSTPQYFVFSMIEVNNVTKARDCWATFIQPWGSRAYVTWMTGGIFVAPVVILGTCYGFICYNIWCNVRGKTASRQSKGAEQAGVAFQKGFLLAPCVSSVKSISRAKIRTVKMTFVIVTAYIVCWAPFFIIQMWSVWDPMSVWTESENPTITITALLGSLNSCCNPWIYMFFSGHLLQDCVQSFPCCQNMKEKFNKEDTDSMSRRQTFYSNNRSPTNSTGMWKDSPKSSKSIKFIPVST
- PROCEDURE DETAILS: Cellular in vitro assay for determining vasopressin receptor activity, V1a receptor cell line (CHO, aequorin luminescence)
- Format: cell-based
- TEST CONDITIONS: selectivity ratio IC50 hV2 / IC50 hV1a
PROPERTY LABEL: ratio IC50 hV2/hV1a

Before answering, review these 6 worked examples.
# MOLECULE, ASSAYED TARGET, ratio IC50 hV2/hV1a
data = [
    ("O=C(NC1CCOC1)c1ccccc1-n1cnc(Cn2nc(-c3ccc(Cl)cc3)n(C[C@H](O)C(F)(F)F)c2=O)n1 (mixture of isomers)", "human V1a receptor (Homo sapiens, UniProt P37288)", 39.8),
    ("O=C(NC1CC1)c1ccncc1-n1cnc(Cn2nc(-c3ccc(Cl)cc3)n(C[C@H](O)C(F)(F)F)c2=O)n1", "human V1a receptor (Homo sapiens, UniProt P37288)", 69.0),
    ("Cc1cnn(CC(=O)Nc2ncccc2-n2cnc(Cn3nc(-c4ccc(Cl)cc4)n(C[C@H](O)C(F)(F)F)c3=O)n2)c1", "human V1a receptor (Homo sapiens, UniProt P37288)", 7.3),
    ("O=C(c1ccccc1-n1cnc(Cn2nc(-c3ccc(Cl)cc3)n(C[C@H](O)C(F)(F)F)c2=O)n1)N1CCC(F)(F)CC1", "human V1a receptor (Homo sapiens, UniProt P37288)", 150.7),
    ("Cc1ccc(F)cc1NC(=O)c1ccccc1-n1cnc(Cn2nc(-c3ccc(Cl)cc3)n(C[C@H](O)C(F)(F)F)c2=O)n1", "human V1a receptor (Homo sapiens, UniProt P37288)", 21.1),
    ("O=C(NC1CC1(F)F)c1cccc(Cl)c1-n1cnc(Cn2nc(-c3ccc(Cl)cc3)n(C[C@H](O)C(F)(F)F)c2=O)n1 (mixture of isomers)", "human V1a receptor (Homo sapiens, UniProt P37288)", 47.3),
]

(P) O=C(NC1CC1F)c1cccc(Cl)c1-n1cnc(Cn2nc(-c3ccc(Cl)cc3)n(C[C@H](O)C(F)(F)F)c2=O)n1 (stereo partly shown)
(Q) C=CC(C)C(=O)Nc1ncccc1-n1cnc(Cn2nc(-c3ccc(Cl)cc3)n(C[C@H](O)C(F)(F)F)c2=O)n1 (stereo partly shown)
[Q] From the items above, decide which of P and Q has the lower ratio IC50 hV2/hV1a reading. Field: selected label. Fill in the label of the entry you choose.
[A] Q
(Q: 10.3, P: 216.8)

----------
- ASSAYED TARGET: human V1a receptor (Homo sapiens, UniProt P37288)
- PROCEDURE DETAILS: Cellular in vitro assay for determining vasopressin receptor activity, V1a receptor cell line (CHO, aequorin luminescence)
- TEST CONDITIONS: CHO cell line transfected with human V1a receptor; [Arg]-vasopressin at EC50 concentration; read-out: IC50 hV1a
pIC50: −log10 of the molar value.
PROPERTY LABEL: pIC50

# COMPOUND, pIC50
measured = [
    ("Cc1n[nH]c(C)c1NC(=O)c1ccccc1-n1cnc(Cn2nc(-c3ccc(Cl)cc3)n(C[C@H](O)C(F)(F)F)c2=O)n1 [Example 214]", 8.78),
]

(I) O=C(NCCC(F)(F)F)c1ccncc1-n1cnc(Cn2nc(-c3ccc(Cl)cc3)n(C[C@H](O)C(F)(F)F)c2=O)n1 [Example 491]
(II) O=C(c1ncccc1-n1cnc(Cn2nc(-c3ccc(Cl)cc3)n(C[C@@H](O)C(F)(F)F)c2=O)n1)N1CCOCC1 [Example 472]
[Q] Which record would sort first by descending pIC50, I or II ? Field: selected label. Fill in the label of the entry you choose.
[A] I

----------
- ASSAYED TARGET: human V1a receptor (Homo sapiens, UniProt P37288)
- Construct: expressed in transfected cells; host or cells: CHO K1 (ATCC), also stably transfected with a modified aequorin
- PROCEDURE DETAILS: Cellular in vitro assay for determining vasopressin receptor activity, V1a receptor cell line (CHO, aequorin luminescence)
- Format: cell-based
- TEST CONDITIONS: selectivity ratio IC50 hV2 / IC50 hV1a
PROPERTY LABEL: ratio IC50 hV2/hV1a

Before answering, review these 3 worked examples.
# COMPOUND, ASSAYED TARGET, REPORTED
rows = [
    ("N[C@@H]1CCCC[C@@H]1NC(=O)c1ccccc1-n1cnc(Cn2nc(-c3ccc(Cl)cc3)n(C[C@H](O)C(F)(F)F)c2=O)n1", "human V1a receptor (Homo sapiens, UniProt P37288)", 417.3),
    ("CC(C)(O)C(=O)Nc1ncccc1-n1cnc(Cn2nc(-c3ccc(Cl)cc3)n(C[C@H](O)C(F)(F)F)c2=O)n1", "human V1a receptor (Homo sapiens, UniProt P37288)", 8.1),
    ("O=C(NCc1ccccc1F)c1ccccc1-n1cnc(Cn2nc(-c3ccc(Cl)cc3)n(C[C@H](O)C(F)(F)F)c2=O)n1", "human V1a receptor (Homo sapiens, UniProt P37288)", 62.7),
]

(I) O=C(NC1CC1)c1cccc(Cl)c1-n1cnc(Cn2nc(-c3ccc(Cl)cc3)n(C[C@@H](O)C(F)(F)F)c2=O)n1
(II) O=C(Nc1ncccc1-n1cnc(Cn2nc(-c3ccc(Cl)cc3)n(C[C@H](O)C(F)(F)F)c2=O)n1)C1CCS(=O)(=O)C1 (mixture of isomers)
(III) O=C(Nc1ncccc1-n1cnc(Cn2nc(-c3ccc(Cl)cc3)n(C[C@H](O)C(F)(F)F)c2=O)n1)c1ccno1
(IV) O=C(NCC(O)C(F)(F)F)c1ncccc1-n1cnc(Cn2nc(-c3ccc(Cl)cc3)n(C[C@@H](O)C(F)(F)F)c2=O)n1 (mixture of isomers)
(V) O=C(NCCN1CCCC1=O)c1ccccc1-n1cnc(Cn2nc(-c3ccc(Cl)cc3)n(C[C@H](O)C(F)(F)F)c2=O)n1
[Q] // smallest ratio IC50 hV2/hV1a at index 0, largest at the end Dear reader, please state the labels in the requested order.
[A] II, IV, III, V, I
(II: 10.2, IV: 21.7, III: 46.4, V: 69.7, I: 369.7)

(I) COC1CCCN(C(=O)c2ccccc2-n2cnc(Cn3nc(-c4ccc(Cl)cc4)n(C[C@H](O)C(F)(F)F)c3=O)n2)C1 (mixture of isomers)
(II) O=C(NCCC(F)(F)F)c1cccnc1-n1cnc(Cn2nc(-c3ccc(Cl)cc3)n(C[C@H](O)C(F)(F)F)c2=O)n1
[Q] From the items above, decide which of I and II has the lower ratio IC50 hV2/hV1a reading. Field: selected label. Fill in the label of the entry you choose.
[A] II
(II: 18.5, I: 422.0)

(A) O=C(NCc1ccccc1)c1ccccc1-n1cnc(Cn2nc(-c3ccc(Cl)cc3)n(C[C@H](O)C(F)(F)F)c2=O)n1
(B) O=C(Nc1cncc(F)c1)c1ccccc1-n1cnc(Cn2nc(-c3ccc(Cl)cc3)n(C[C@H](O)C(F)(F)F)c2=O)n1
[Q] Which record would sort first by descending ratio IC50 hV2/hV1a, A or B ? Field: selected label. Fill in the label of the entry you choose.
[A] B
(B: 169.8, A: 60.2)

----------
- ASSAYED TARGET: human V1a receptor (Homo sapiens)
- Construct: expressed in transfected cells; host or cells: CHO K1 (ATCC), also stably transfected with a modified aequorin
- PROCEDURE DETAILS: Cellular in vitro assay for determining vasopressin receptor activity, V1a receptor cell line (CHO, aequorin luminescence)
- Type: cell-based
- TEST CONDITIONS: selectivity ratio IC50 hV2 / IC50 hV1a
PROPERTY LABEL: ratio IC50 hV2/hV1a

Before answering, review these 5 worked examples.
# MOLECULE, REPORTED
rows = [
    ("O=C(Cc1cccnc1)Nc1ncccc1-n1cnc(Cn2nc(-c3ccc(Cl)cc3)n(C[C@H](O)C(F)(F)F)c2=O)n1 [Example 89]", 51.4),
    ("O=C(NCCC(F)(F)F)c1cccc(Cl)c1-n1cnc(Cn2nc(-c3ccc(Cl)cc3)n(C[C@H](O)C(F)(F)F)c2=O)n1 [Example 392]", 12.4),
    ("CC1=NOC(C)(C(=O)Nc2ncccc2-n2cnc(Cn3nc(-c4ccc(Cl)cc4)n(C[C@H](O)C(F)(F)F)c3=O)n2)C1 (stereo partly shown) [Example 142]", 24.0),
    ("O=C(NC1CC1)c1ccncc1-n1nc(Cn2nc(-c3ccc(Cl)cc3)n(C[C@H](O)C(F)(F)F)c2=O)nc1C(=O)N1CCS(=O)(=O)CC1 [Example 520]", 2.3),
    ("NC(=O)[C@@H]1CC(F)(F)CN1c1ccncc1-n1cnc(Cn2nc(-c3ccc(Cl)cc3)n(C[C@H](O)C(F)(F)F)c2=O)n1 [Example 25]", 2.5),
]

(1) O=C(CC(F)(F)F)Nc1ncccc1-n1cnc(Cn2nc(-c3ccc(Cl)cc3)n(C[C@H](O)C(F)(F)F)c2=O)n1 [Example 74]
(2) O=CN1CCN(C(=O)c2ccccc2-n2cnc(Cn3nc(-c4ccc(Cl)cc4)n(C[C@H](O)C(F)(F)F)c3=O)n2)CC1 [Example 263]
(3) O=C(NCCC(F)(F)F)c1ccncc1-n1cnc(Cn2nc(-c3ccc(Cl)cc3)n(C[C@H](O)C(F)(F)F)c2=O)n1 [Example 491]
(4) CN(CCC#N)C(=O)c1ccccc1-n1cnc(Cn2nc(-c3ccc(Cl)cc3)n(C[C@H](O)C(F)(F)F)c2=O)n1 [Example 362]
(5) O=C(NC1CC(F)(F)C1)c1cccc(Cl)c1-n1cnc(Cn2nc(-c3ccc(Cl)cc3)n(C[C@@H](O)C(F)(F)F)c2=O)n1 [Example 399]
[Q] Returns the items ordered by ratio IC50 hV2/hV1a, from maximum to minimum. Dear reader, please state the labels in the requested order.
[A] 4, 2, 1, 3, 5
(4: 515.5, 2: 256.9, 1: 154.5, 3: 61.9, 5: 16.6)

(I) COC[C@H]1CCCN1C(=O)c1cccc(C(F)(F)F)c1-n1cnc(Cn2nc(-c3ccc(Cl)cc3)n(C[C@H](O)C(F)(F)F)c2=O)n1 [Example 416]
(II) COC[C@H]1CCCN1C(=O)c1ccccc1-n1cnc(Cn2nc(-c3ccc(Cl)cc3)n(C[C@H](O)C(F)(F)F)c2=O)n1 [Example 335]
(III) CC1(O)CCN(c2ccncc2-n2cnc(Cn3nc(-c4ccc(Cl)cc4)n(C[C@H](O)C(F)(F)F)c3=O)n2)C1 (mixture of isomers) [Example 13]
[Q] Returns the items ordered by ratio IC50 hV2/hV1a, from maximum to minimum. Dear reader, please state the labels in the requested order.
[A] I, II, III
(I: 113.6, II: 71.3, III: 0.2)
